Could you please report measured composite z-score for the items listed next?
molecular target: Torsin-1A-interacting protein 2 (Homo sapiens); experiment: small molecules binding lysate-expressed LULL1 – cell lysate, human LULL1 lysate, 635/667 nm fluorescence, primary screen (AID 1092); settings: small-molecule microarray, hLULL1 lysate binding, 635 nm fluorescence; higher = more signal;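 note: score merges per-feature 667 nm fluorescence with signal-to-noise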
// no unit string in output, number only

## Task API: value(readout=composite z-score, system=Torsin-1A-interacting protein 2 (Homo sapiens)) for record `CCCC[C@@H]1C[C@H]1[C@@H](NC(=O)c1ccccc1)c1ccccc1`
## Result 0.981

## Task Please state recorded composite z-score (tested on Torsin-1A-interacting protein 2 (Homo sapiens)) of CC(c1ccccc1)C(O)C1C=CC2C(=O)N(c3ccccc3)C(=O)C2N1Nc1ccccc1F (stereo not drawn)
## Result 2.87

## Task Request body: readout composite z-score, system Torsin-1A-interacting protein 2 (Homo sapiens), query `CCCC[C@H]1OB(O)C[C@H]2C1=C(C)Cn1c(=O)n(-c3ccccc3)c(=O)n12` . Return the value.
## Result 0.262

## Task So what composite z-score did `CCCNC(=O)[C@@]1(c2ccc([N+](=O)[O-])cc2)CC(=O)N(CC23CC4CC(CC(C4)C2)C3)[C@@H]1c1ccc(CO)cc1I` get with Torsin-1A-interacting protein 2 (Homo sapiens)?
## Result 1.53

## Task Find composite z-score (Torsin-1A-interacting protein 2 (Homo sapiens)) for the entry `C=CCOC(=O)[C@@H]1[C@H]2C(=O)O[C@H](c3ccccc3)[C@H](c3ccccc3)N2[C@H](c2ccc(OCCOC(=O)[C@H]3C[C@H]4C(=O)N[C@@H](Cc5ccccc5)C(=O)N4[C@H]3c3ccc(O)cc3)cc2)[C@@]12C(=O)Nc1ccc(I)cc12`
## Result 1.83

## Task Tell me reported composite z-score for `O=C(N1CCCCC1)[C@]1(CCS(=O)(=O)c2ccccc2)N=C(c2ccc(OCCCO)cc2)O[C@@H]1c1ccccc1` , tested with Torsin-1A-interacting protein 2 (Homo sapiens).
## Result 2.4

## Task Find composite z-score (Torsin-1A-interacting protein 2 (Homo sapiens)) for the entry CN1C(=O)C2C(C1=O)C1C=C(c3ccc(CO)cc3)C2C(C2CC2)N1Cc1cc2c(cc1Br)OCO2 (stereo not drawn)
## Result 3.49

## Task GET /values?readout=composite z-score&system=Torsin-1A-interacting protein 2 (Homo sapiens)&item= `COCCOC(=O)N1C(=O)[C@@]2(c3cc(C#CCC(C(=O)OC)C(=O)OC)ccc31)[C@H](c1ccccc1OCCO)N1[C@H](c3ccccc3)[C@H](c3ccccc3)OC(=O)[C@H]1[C@@H]2C(=O)Nc1nc2ccccc2s1`
## Result 2.22

## Task Which measured composite z-score belongs to `COc1ccc([Si](C)(C)[C@H]2[C@H](CCO)O[C@@]3(C(=O)N(Cc4cccc(N5C(=O)c6cccc7cccc5c67)c4)c4ccccc43)[C@@H]2C)cc1` , tested on Torsin-1A-interacting protein 2 (Homo sapiens)?
## Result 2.1

## Task Lab note: need composite z-score with Torsin-1A-interacting protein 2 (Homo sapiens) for entry `C=CCOC(=O)[C@H]1[C@@H]2C(=O)O[C@@H](c3ccccc3)[C@@H](c3ccccc3)N2[C@@H](c2ccc(OCCOC(=O)[C@H]3C[C@H]4C(=O)N[C@@H](CCCC[N+](C)(C)C)C(=O)N4[C@H]3c3ccc(O)cc3)cc2)[C@]12C(=O)Nc1ccccc12` , please look it up.
## Result 1.68

## Task API: value(readout=composite z-score, system=Torsin-1A-interacting protein 2 (Homo sapiens)) for record `CO[C@H]1O[C@H](CO)[C@@H](OC(=O)Nc2ccccc2-c2ccccc2)[C@H](OC(=O)Nc2ccccc2-c2ccccc2)[C@H]1OC(=O)Nc1ccccc1-c1ccccc1`
## Result 3.23

## Task Find the measured composite z-score: item `CC(C)[C@H]1COC(=O)N1C(=O)[C@H]1[C@@H](c2ccccc2)N(c2ccccc2)O[C@@H]1C` , target or system Torsin-1A-interacting protein 2 (Homo sapiens).
## Result 1.29

## Task Query the reported composite z-score for Torsin-1A-interacting protein 2 (Homo sapiens); item: `COc1ccc([Si](C)(C)[C@H]2[C@H](CCO)O[C@@]3(C(=O)N(Cc4ccccc4)c4ccc(N5C(=O)COc6ccccc65)cc43)[C@@H]2C)cc1`
## Result 1.14
